System: LK-2
Assay: relative viability (nuclei count vs DMSO), 5 days (fraction); higher = more cells survive
Conditions: first compound 0.006325 µM
observed property: relative viability

compound	tested target	observed property	result number
CCNC(=O)c1noc(-c2cc(C(C)C)c(O)cc2O)c1-c1ccc(CN2CCOCC2)cc1 [Luminespib] + O=C(c1cc(Cc2n[nH]c(=O)c3ccccc23)ccc1F)N1CCN(C(=O)C2CC2)CC1 [Olaparib] (partner 8 µM)	LK-2	relative viability	0.89
CCNC(=O)c1noc(-c2cc(C(C)C)c(O)cc2O)c1-c1ccc(CN2CCOCC2)cc1 [Luminespib] + C[C@]1(O)C[C@@H](c2nc(-c3ccc4ccc(-c5ccccc5)nc4c3)c3c(N)nccn32)C1 [Linsitinib] (partner 1 µM)	LK-2	relative viability	0.522
CCNC(=O)c1noc(-c2cc(C(C)C)c(O)cc2O)c1-c1ccc(CN2CCOCC2)cc1 [Luminespib] + Nc1ncn([C@H]2C[C@H](O)[C@@H](CO)O2)c(=O)n1 [Decitabine] (partner 2 µM)	LK-2	relative viability	0.268
CCNC(=O)c1noc(-c2cc(C(C)C)c(O)cc2O)c1-c1ccc(CN2CCOCC2)cc1 [Luminespib] + CS(=O)(=O)CCNCc1ccc(-c2ccc3ncnc(Nc4ccc(OCc5cccc(F)c5)c(Cl)c4)c3c2)o1 [Lapatinib] (partner 2 µM)	LK-2	relative viability	0.941
